Reference source for all entries: the supplement of paper PMC8728848

measurement-target: Fuc(a1-2)Gal(b1-4)GlcNAc(b1-2)Man(a1-3)[Fuc(a1-2)Gal(b1-4)GlcNAc(b1-2)Man(a1-6)]Man(b1-4)GlcNAc(b1-4)[Fuc(a1-6)]GlcNAc
procedure-details: glycan array binding signal (z-score within array); higher = stronger binding
particulars: glycan notation: IUPAC condensed, linker removed
The sample as a whole holds a higher share of the strongest signals than the screen did.
metric-name: glycan array binding signal (z-score)

Consider the binder CBM13 2a (Mycobacterium tuberculosum), P64849 (protein) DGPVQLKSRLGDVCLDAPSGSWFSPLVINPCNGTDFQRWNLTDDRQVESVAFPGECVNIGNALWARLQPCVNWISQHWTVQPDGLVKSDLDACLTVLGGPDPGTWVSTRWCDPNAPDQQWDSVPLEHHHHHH . State its measured glycan array binding signal (z-score).
0.023
